Listed here are molecules together with their documented log10 IC50.
- System: HBeAg
- TEST NAME: PHH natural infection assay, HBeAg (alphalisa)
- Format: cell-based, HBV
- RUN PARAMETERS: Hepatitis B virus, read-out: HBeAg IC50
Values are log10 of IC50 in nM.

MOLECULE	log10 IC50
O=C(Nc1ccc(-c2nc3cccnc3o2)cc1)C1CCS(=O)(=O)CC1 [Example 66]	3.79
O=C(Nc1ccc(-c2nc3cc(Cl)ccc3o2)cc1)C1CCOC1 (stereo not drawn) [Example 75]	3.13
COC(C)C(=O)Nc1ccc(-c2nc3cccnc3o2)cc1 (stereo not drawn) [Example 62]	3.52
O=C(Nc1ccc(-c2nc3c(F)cccc3o2)cc1)C12CC(C1)C2 [Example 47]	3.08
Cc1cnc(C(=O)Nc2ccc(-c3nc4c(F)cccc4o3)cc2)o1 [Example 41]	2.72
CCOC(=O)Nc1ccc(-c2nc3c(F)cccc3o2)cc1 [Example 59]	3.20

// query Which value of log10 IC50 has been reported for O=C(Nc1ccc(-c2nc3cccc(F)c3o2)cc1)C1CS(=O)(=O)C1 [Example 31] in the records?
// result 3.36

// query Name the recorded log10 IC50 for CC(O)C(=O)Nc1ccc(-c2nc3cccc(F)c3o2)cc1 (stereo not drawn) [Example 24] .
// result 3.26

// query May I ask what log10 IC50 has been recorded for O=C(Nc1ccc(-c2nc3cccc(F)c3o2)cc1)C1CCS(=O)(=O)CC1 [Example 18] ?
// result 2.98
